Origin of measurements: patent US9512176B2

Tested on: ribonuclease A
ASSAY EXPLANATION: SDS PAGE electrophoresis of ribonuclease A incubated with methylglyoxal and inhibitor
Assay type: biochemical
CONDITIONS USED: ribonuclease A 10 mg/ml, methylglyoxal 10 mM, inhibitor equimolar, 37° C., 48 hours
Non-standard residues stand in square brackets, D forms with d. Residues, ends and D or L forms follow the SMILES beside them. ξ: configuration not given here. Ile(3ξ) = CCC(C)[C@H](N)C(=O)O; dDap = NC[C@@H](N)C(=O)O; Dap = NC[C@H](N)C(=O)O
RECORDED METRIC: protection from structural modifications (dimer form) caused by methylglyoxal

COMPOUND	TESTED SYSTEM	OBSERVED MEASUREMENT
C[C@@H](NC(=O)[C@H](N)CN)C(=O)O [example 8, D-DAPA-D-Ala.2HCl] (H-[dDap]-[dA]-OH)	ribonuclease A	provides protection
CC(C)C[C@H](NC(=O)[C@@H](N)[C@H](C)N)C(=O)O [example 12, (2S,3S)-DABA-L-Leu.2HCl]	ribonuclease A	provides protection
NC[C@H](N)C(=O)NCC(=O)O [example 17, L-DAPA-Gly.2HCl] (H-[Dap]-Gly-OH)	ribonuclease A	provides protection
CC(C)C[C@H](NC(=O)[C@@H](N)CN)C(=O)O [example 1, L-DAPA-L-Leu.2HCl] (H-[Dap]-Leu-OH)	ribonuclease A	provides protection
CC(C)[C@H](NC(=O)[C@@H](N)[C@H](N)C(=O)N[C@H](C(=O)O)C(C)C)C(=O)O [example 29, (2S,3S)-DASA-1-L-Val-4-L-Val.2HCl]	ribonuclease A	provides protection

Note down protection from structural modifications (dimer form) caused by methylglyoxal recorded for CCC(C)[C@H](NC(=O)[C@@H](N)CN)C(=O)O (stereo partly drawn) [example 18, L-DAPA-L-Ile.2HCl] (H-[Dap]-[Ile(3ξ)]-OH)
provides protection

Identify protection from structural modifications (dimer form) caused by methylglyoxal associated with the compound CC(C)[C@H](NC(=O)[C@@H](N)CN)C(=O)O [example 23, L-DAPA-L-Val.2HCl] (H-[Dap]-Val-OH)
provides protection

----------
Below, each entry is listed with its recorded Cells + MG scavengers (A).
Tested on: EA.hy 926 cell line
ASSAY EXPLANATION: Growth of EA.hy 926 endothelial cells with MG scavengers and/or methylglyoxal (MTT)
Type: cell-based, human
CONDITIONS USED: scavenger 1 mM, no methylglyoxal, 48 hours; number of cells relative to untreated control cells; mean of 3 experiments
Non-standard residues stand in square brackets, D forms with d. Residues, ends and D or L forms follow the SMILES beside them. ξ: configuration not given here. Ile(3ξ) = CCC(C)[C@H](N)C(=O)O; Dap = NC[C@H](N)C(=O)O
State just the number; it will be interpreted in %.

COMPOUND	TESTED SYSTEM	Cells + MG scavengers (A) [%]
N[C@H](C(=O)NCC(=O)O)[C@@H](N)C(=O)NCC(=O)O [example 28, (2S,3R)-DASA-1-Gly-4-Gly.2HCl]	EA.hy 926 cell line	61

Complete the entry with Cells + MG scavengers (A) for CC(C)C[C@H](NC(=O)[C@@H](N)[C@H](C)N)C(=O)O [example 12, (2S,3S)-DABA-L-Leu.2HCl]
77

Return value of Cells + MG scavengers (A) for input CCC(C)[C@H](NC(=O)[C@@H](N)CN)C(=O)O (stereo partly drawn) [example 18, L-DAPA-L-Ile.2HCl] (H-[Dap]-[Ile(3ξ)]-OH) , no commentary.
86

// Input: NCCCC[C@H](N)C(=O)O [L-Lys, reference compound] . Output its Cells + MG scavengers (A) only.
81

Answer with the recorded Cells + MG scavengers (A) for the compound listed here: CN(C)C(=N)N=C(N)N [Metformin, reference compound]
91

Input NC[C@H](N)C(=O)NCC(=O)O [example 17, L-DAPA-Gly.2HCl] (H-[Dap]-Gly-OH) , output reported Cells + MG scavengers (A).
54

Please look at this compound and report its Cells + MG scavengers (A): NCCC(=O)N[C@@H](Cc1cnc[nH]1)C(=O)O [Carnosine, β-alanyl-L-histidine, reference compound]
99

Give me measured Cells + MG scavengers (A), please, for this compound: CC(C)[C@H](NC(=O)[C@@H](N)[C@H](N)C(=O)N[C@H](C(=O)O)C(C)C)C(=O)O [example 29, (2S,3S)-DASA-1-L-Val-4-L-Val.2HCl]
85

----------
Catalogue of molecules with associated cell survival when incubated with MG
Tested on: EA.hy 926 cell line
ASSAY EXPLANATION: Growth of EA.hy 926 endothelial cells with MG scavengers and/or methylglyoxal (MTT)
Assay type: cell-based, human
Non-standard residues stand in square brackets, D forms with d. Residues, ends and D or L forms follow the SMILES beside them. ξ: configuration not given here. Ile(3ξ) = CCC(C)[C@H](N)C(=O)O; Dap = NC[C@H](N)C(=O)O
Supply the numeric figure in %, leaving out any unit text.

// worked examples, cell survival when incubated with MG included
MOLECULE	cell survival when incubated with MG / %
CCC(C)[C@H](NC(=O)[C@@H](N)CN)C(=O)O (stereo partly drawn) [example 18, L-DAPA-L-Ile.2HCl] (H-[Dap]-[Ile(3ξ)]-OH)	79
NCC(N)C(=O)O [D-DAPA, 2,3-diaminopropionic acid, reference compound]	68
CC(C)C[C@H](NC(=O)[C@@H](N)CN)C(=O)O [example 1, L-DAPA-L-Leu.2HCl] (H-[Dap]-Leu-OH)	81

Next up:
For the molecule CC(C)[C@H](NC(=O)[C@@H](N)CN)C(=O)O [example 23, L-DAPA-L-Val.2HCl] (H-[Dap]-Val-OH) , give its measured cell survival when incubated with MG value.
93

----------
Test system: EA.hy 926 cell line
ASSAY EXPLANATION: Growth of EA.hy 926 endothelial cells with MG scavengers and/or methylglyoxal (MTT)
Assay type: cell-based, human
CONDITIONS USED: scavenger 1 mM, no methylglyoxal, 48 hours; number of cells relative to untreated control cells; mean of 3 experiments
Non-standard residues stand in square brackets, D forms with d. Residues, ends and D or L forms follow the SMILES beside them. dDap = NC[C@@H](N)C(=O)O; Dap = NC[C@H](N)C(=O)O
Label condition met when Cells + MG scavengers (A) is at or above 90%; otherwise label condition not met.

Here are 6 compounds together with their reported answers.
COMPOUND	QUALITATIVE LABEL
CC(C)C[C@H](NC(=S)[C@@H](N)CN)C(=O)O [example 16, L-DAPA-L-(S)-Leu.2HCl]	condition not met
CC(C)C[C@H](NC(=O)[C@@H](N)CN)C(=O)O [example 1, L-DAPA-L-Leu.2HCl] (H-[Dap]-Leu-OH)	condition met
NCC(N)C(=O)O [D-DAPA, 2,3-diaminopropionic acid, reference compound]	condition not met
CC(C)[C@H](NC(=O)[C@@H](N)CN)C(=O)O [example 23, L-DAPA-L-Val.2HCl] (H-[Dap]-Val-OH)	condition met
C[C@@H](NC(=O)[C@H](N)CN)C(=O)O [example 8, D-DAPA-D-Ala.2HCl] (H-[dDap]-[dA]-OH)	condition not met
NC[C@H](N)C(=O)N[C@@H](Cc1ccccc1)C(=O)O [example 21, L-DAPA-L-Phe.2HCl] (H-[Dap]-Phe-OH)	condition not met

Please indicate if the recorded Cells + MG scavengers (A) for N=C(N)NN [Aminoguanidine, aminoguanidine, reference compound] meets or exceeds 90%.
condition met
